- assay.system: T1, soluble human insulin receptor-immunoglobulin heavy chain chimera (sIR-Fc; Bass et al., 1996) (human, UniProt P06213 28-956, limits assumed)
- T1 construct: extracellular domain; also called soluble IR (Bass construct); not shown: immunoglobulin heavy chain constant domains
- assay.summary: phage ELISA
YES if Ratio over Background is below 2. NO if not; exact matches included in NO.

binder	group
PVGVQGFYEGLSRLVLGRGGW [20E2B-4-F8-IGFR]	YES
LKDGFYDYFWQRLHLGS [NNRPγ-4-B11-IR]	YES
GFREGNFYEWFQAQVT [E4Dα-4-H2-IR]	NO
VGYQGQGDENFYDWFIRQVSGRLGVQ [H2CA-4-F5-IGFR]	YES
CCTTEMVVMDARDDPFYHKLSELVTGG [B6Hα-1-B5-IR]	YES

-- ask Ratio over Background strictly < 2 for this binder? LSSDGQFYRALNLLLQGSAGR [20E2B-2-B7-IGFR]
-- reply YES

-- ask Field entry: GCVVEWQKWHGASDPFYHKLSELGGCS [B6Hα-3-F10-IR]
-- reply YES
